target-desc: T1, Human CD3eg linker (human)
T1 construct: Single chain: epsilon and gamma subunits of human CD3 joined by a 29-mer linker, Flag-tag at the C-terminus; also called recombinant human CD3
T1 chain: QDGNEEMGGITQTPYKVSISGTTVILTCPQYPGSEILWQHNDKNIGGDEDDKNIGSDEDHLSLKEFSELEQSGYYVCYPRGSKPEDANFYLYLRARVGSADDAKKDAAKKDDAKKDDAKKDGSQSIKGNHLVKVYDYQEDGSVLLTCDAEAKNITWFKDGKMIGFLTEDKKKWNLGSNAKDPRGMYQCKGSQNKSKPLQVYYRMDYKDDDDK
assay-method-text: Biacore SPR, vs template H183/L072
measure: fold change of affinity (fold)

binder="H183/L072 VH V63P (antibody, name in Kabat numbering, V domains shown) VH: QVQLVESGGGLVQPGRSLRLSCAASGFTFSNAWMHWVRQAPGKGLEWVAQIKDKGNAYAAYYAPSPKGRFTISRDDSKNSIYLQMNSLKTEDTAVYYCHYVHYASASTVLPAFGVDAWGQGTTVTVSS VL: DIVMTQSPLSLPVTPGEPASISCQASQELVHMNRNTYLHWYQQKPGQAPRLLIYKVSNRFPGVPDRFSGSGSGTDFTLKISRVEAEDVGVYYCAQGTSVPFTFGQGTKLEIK" experimental_result=1.2
binder="H183/L072 VH A54V (antibody, name in Kabat numbering, V domains shown) VH: QVQLVESGGGLVQPGRSLRLSCAASGFTFSNAWMHWVRQAPGKGLEWVAQIKDKGNVYAAYYAPSVKGRFTISRDDSKNSIYLQMNSLKTEDTAVYYCHYVHYASASTVLPAFGVDAWGQGTTVTVSS VL: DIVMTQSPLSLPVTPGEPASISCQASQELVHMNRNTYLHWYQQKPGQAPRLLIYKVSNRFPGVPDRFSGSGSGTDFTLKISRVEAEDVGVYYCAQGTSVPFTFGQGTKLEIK" experimental_result=0.7
binder="H183/L072 VH G52cP (antibody, name in Kabat numbering, V domains shown) VH: QVQLVESGGGLVQPGRSLRLSCAASGFTFSNAWMHWVRQAPGKGLEWVAQIKDKPNAYAAYYAPSVKGRFTISRDDSKNSIYLQMNSLKTEDTAVYYCHYVHYASASTVLPAFGVDAWGQGTTVTVSS VL: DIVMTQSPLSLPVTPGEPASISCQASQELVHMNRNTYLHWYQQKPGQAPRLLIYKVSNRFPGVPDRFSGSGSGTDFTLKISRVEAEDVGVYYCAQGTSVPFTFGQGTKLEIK" experimental_result=1.3
